Target: human GlyT1c (Homo sapiens (Human), UniProt P48067)
Sequence (P48067 whole entry): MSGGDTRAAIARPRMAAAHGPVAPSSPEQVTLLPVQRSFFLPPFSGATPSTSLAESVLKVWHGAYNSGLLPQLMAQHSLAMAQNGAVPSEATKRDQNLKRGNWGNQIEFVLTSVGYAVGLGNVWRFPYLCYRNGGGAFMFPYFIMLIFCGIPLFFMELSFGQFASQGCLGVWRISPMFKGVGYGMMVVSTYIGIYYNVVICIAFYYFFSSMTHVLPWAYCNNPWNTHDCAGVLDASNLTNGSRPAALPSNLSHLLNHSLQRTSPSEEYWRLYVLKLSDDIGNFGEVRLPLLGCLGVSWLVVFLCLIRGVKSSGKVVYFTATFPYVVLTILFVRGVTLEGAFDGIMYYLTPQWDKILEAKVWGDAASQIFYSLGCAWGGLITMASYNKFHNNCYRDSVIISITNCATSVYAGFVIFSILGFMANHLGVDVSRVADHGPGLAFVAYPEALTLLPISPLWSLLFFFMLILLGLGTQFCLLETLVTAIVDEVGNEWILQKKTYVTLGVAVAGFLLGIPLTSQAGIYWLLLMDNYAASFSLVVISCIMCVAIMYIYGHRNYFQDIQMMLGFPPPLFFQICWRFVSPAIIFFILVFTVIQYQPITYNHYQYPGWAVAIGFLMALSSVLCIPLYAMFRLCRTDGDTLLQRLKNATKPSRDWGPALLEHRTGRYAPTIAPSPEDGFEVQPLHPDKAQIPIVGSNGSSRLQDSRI
Assay: [3H]-Glycine uptake into recombinant CHO cells expressing human GlyT1
Assay type: cell-based
Conditions: hGlyT1c_5_CHO cells, 200 nM [3H]-glycine
pIC50: −log10 of the molar value. Counter-ions that a name gives are not always drawn.
Examples of compounds with documented pIC50 follow.

Some entries whose results are on file:
>>> value_observed("CCOC(=O)NC1CCc2ccc(OCCNS(=O)(=O)c3cc(C)sc3C)cc2C1Cc1cccc(Cl)c1 (stereo not drawn)")
"≤ 4.00"
>>> value_observed("CCOC(=O)NC1CCc2ccc(OCCNS(=O)(=O)CCC(F)(F)F)cc2C1Cc1ccc(Cl)c(Cl)c1 (stereo not drawn)")
"≥ 3.00"
>>> value_observed("NC1CCc2ccc(OCCNS(=O)(=O)c3cccs3)cc2C1Cc1cccc(Cl)c1 (stereo not drawn)")
"≥ 6.00"

Form entry - test system: human GlyT1c (Homo sapiens (Human), UniProt P48067); read-out: pIC50; compound: NC1CCc2ccc(OCCNS(=O)(=O)C3CCNC3)cc2C1Cc1ccc(Cl)c(Cl)c1 (stereo not drawn) [Example 19, hydrochloride]
≥ 4.00

Try CCCS(=O)(=O)NCCOc1ccc2c(c1)C(Cc1ccc(Cl)c(Cl)c1)C(NC(=O)OCC)CC2 (stereo not drawn) next.
≥ 5.00

Try CCCS(=O)(=O)NCCOc1ccc2c(c1)C(Cc1ccc(Cl)cc1Cl)C(NC(=O)OCC)CC2 (stereo not drawn) next.
≥ 4.00

Try CCCS(=O)(=O)N(C)CCOc1ccc2c(c1)C(Cc1ccc(Cl)c(Cl)c1)C(N)CC2 (stereo not drawn) [Example 11, hydrochloride] next.
≥ 6.00

Try N#Cc1ccc2c(c1)C(Cc1ccc(Cl)cc1)C(N)CC2 (stereo not drawn) [Example 30, hydrochloride] next.
≥ 4.00

Try NC1CCc2ccc(OC(F)F)cc2C1Cc1ccc(Cl)cc1 (stereo not drawn) [Example 36, hydrochloride] next.
≥ 5.00

Try NC1CCc2ccc(CNS(=O)(=O)CCCF)cc2C1Cc1ccc(Cl)c(Cl)c1 (stereo not drawn) [Example 41, hydrochloride] next.
≥ 4.00

Try CC(C)(C)OC(=O)NC1CCc2ccc(CN)cc2C1Cc1ccc(Cl)c(Cl)c1 (stereo not drawn) next.
≥ 4.00

Try CCCS(=O)(=O)N(C)CCOc1ccc2c(c1)C(Cc1cccc(Cl)c1)C(NC(=O)OCC)CC2 (stereo not drawn) next.
≥ 5.00

Try CCOC(=O)NC1CCc2ccc(OCCNS(=O)(=O)c3cn(C)cn3)cc2C1Cc1cccc(Cl)c1 (stereo not drawn) next.
≥ 6.00

Try CCOC(=O)NC1CCc2ccc(OCCNS(=O)(=O)c3ccc(Cl)s3)cc2C1Cc1cccc(Cl)c1 (stereo not drawn) next.
≥ 3.00

Try CCOC(=O)NC1CCc2ccc(OCCNS(=O)(=O)c3cn(C)cn3)cc2C1Cc1ccc(Cl)c(Cl)c1 (stereo not drawn) next.
≥ 6.00

Try CCOC(=O)NC1CCc2ccc(OCCNS(=O)(=O)c3cc(C)cs3)cc2C1Cc1ccc(Cl)c(Cl)c1 (stereo not drawn) next.
≥ 3.00

Try CCCS(=O)(=O)NCCOc1ccc2c(c1)C(Cc1ccc(Cl)c(Cl)c1)C(N(C)C)CC2 (stereo not drawn) next.
≥ 6.00

Try CCOC(=O)NC1CCc2ccc(OCCNS(=O)(=O)c3cnn(CC)c3)cc2C1Cc1cccc(Cl)c1 (stereo not drawn) next.
≥ 3.00

Try CCOC(=O)NC1CCc2ccc(OCCNS(=O)(=O)c3ccc(C)s3)cc2C1Cc1ccc(Cl)cc1Cl (stereo not drawn) next.
≥ 3.00

Try CCCS(=O)(=O)N1CCC[C@@H]1COc1ccc2c(c1)C(Cc1cccc(Cl)c1)C(N)CC2 (stereo partly drawn) [Example 82, hydrochloride] next.
≥ 6.00

Try CCOC(=O)NC1CCc2ccc(OCCNS(=O)(=O)c3cccnc3)cc2C1Cc1ccc(Cl)c(Cl)c1 (stereo not drawn) next.
≥ 4.00

Try Cn1cnc(S(=O)(=O)NCCOc2ccc3c(c2)C(Cc2ccc(Cl)c(Cl)c2)C(NC(=O)C(F)(F)F)CC3)c1 (stereo not drawn) next.
≥ 7.00

Try CCOC(=O)NC1CCc2ccc(OCCNS(=O)(=O)c3cccs3)cc2C1Cc1ccc(Cl)c(Cl)c1 (stereo not drawn) next.
≥ 3.00

----------
Target: human GlyT1c transporter (Homo sapiens (Human))
Sequence (P48067 whole entry): as above
Test: Radioligand binding assay using recombinant CHO cell membranes expressing human GlyT1
Conditions: human GlyT1c-expressing CHO cell membranes; read-out: radioligand binding Kiapp
Where a name gives a salt, the structure may show the parent alone.
Readout Kind: Ki

Some entries whose results are on file:
>>> value_observed("CNC1CCc2ccc(OCCNS(=O)(=O)CC3CC3)cc2C1Cc1cccc(F)c1 (single isomer, unassigned; enantiomer 2) [Example 239, hydrochloride]")
"≤ 1000 nM"
>>> value_observed("CCCS(=O)(=O)NCCCc1ccc2c(c1)C(Cc1ccccc1Cl)C(NCC)CC2 (centres unmarked) [Example 222, hydrochloride]")
"≤ 1000 nM"
>>> value_observed("CCOC(=O)NC1CCc2ccc(OCCNS(=O)(=O)c3cccs3)cc2C1Cc1ccc(Cl)c(Cl)c1 (centres unmarked)")
"≤ 100000 nM"
>>> value_observed("Cn1cc(S(=O)(=O)NCCOc2ccc3c(c2)C(Cc2ccc(Cl)c(Cl)c2)C(N)CC3)cn1 (centres unmarked) [Example 4, hydrochloride]")
"≤ 10 nM"
>>> value_observed("Cc1csc(S(=O)(=O)NCCOc2ccc3c(c2)C(Cc2cccc(Cl)c2)C(N)CC3)c1 (centres unmarked) [Example 67, hydrochloride]")
"≤ 100 nM"
>>> value_observed("CCCS(=O)(=O)N(CCOc1ccc2c(c1)C(Cc1ccccc1)C(NC(=O)OCC)CC2)C1CC1 (centres unmarked)")
"≤ 10000 nM"
>>> value_observed("CCCS(=O)(=O)N1CC(Oc2ccc3c(c2)C(Cc2cccc(Cl)c2)C(N)CC3)C1 (centres unmarked) [Example 83, hydrochloride]")
"≤ 1000 nM"
>>> value_observed("NC1CCc2ccc(CCCNS(=O)(=O)CC3CC3)cc2C1Cc1ccc(F)cc1 (centres unmarked) [Example 208, hydrochloride]")
"≤ 100 nM"
>>> value_observed("Cn1cnc(S(=O)(=O)NCCOc2ccc3c(c2)C(Cc2ccccc2Cl)C(N)CC3)c1 (centres unmarked) [Example 305, hydrochloride]")
"≤ 100 nM"
>>> value_observed("Cn1ccc(S(=O)(=O)NCCOc2ccc3c(c2)C(Cc2cccc(F)c2)C(N2CCCC2)CC3)c1 (centres unmarked) [Example 267]")
"≤ 100 nM"

Which Ki is listed for Cn1cnc(S(=O)(=O)NCCOc2ccc3c(c2)C(Cc2ccc(Cl)c(Cl)c2)C(N)CC3)n1 (centres unmarked) ?
≤ 1000 nM

Try Cc1cc(CS(=O)(=O)NCCOc2ccc3c(c2)C(Cc2ccc(Cl)c(Cl)c2)C(N)CC3)no1 (centres unmarked) [Example 87, hydrochloride] next.
≤ 10000 nM

Try CCCS(=O)(=O)NCCCc1ccc2c(c1)C(Cc1ccc(F)c(F)c1)C(N)CC2 (centres unmarked) [Example 206, hydrochloride] next.
≤ 100 nM

Try NC1CCc2ccc(CCNS(=O)(=O)CC3CC3)cc2C1Cc1cccc(Cl)c1 (centres unmarked) [Example 310, hydrochloride] next.
≤ 1000 nM

----------
Target: human GlyT1c transporter (Homo sapiens (Human))
Experiment: Radioligand binding assay using recombinant CHO cell membranes expressing human GlyT1
Details: read-out: radioligand binding Kiapp
Counter-ions that a name gives are not always drawn.
Readout Kind: Ki

>>> value_observed("NC1CCc2ccc(OCCNS(=O)(=O)c3ccccc3)cc2C1Cc1ccc(Cl)c(Cl)c1 (stereo not shown) [Example 16, hydrochloride]")
"≤ 10 µM"
>>> value_observed("CCS(=O)(=O)CCCOc1ccc2c(c1)C(Cc1cccc(Cl)c1)C(N)CC2 (stereo not shown) [Example 84, hydrochloride]")
"≤ 10 µM"
>>> value_observed("CCCS(=O)(=O)N(CCOc1ccc2c(c1)C(Cc1cccc(Cl)c1)C(NC(=O)OCC)CC2)C1CC1 (stereo not shown) [Example 279]")
"≤ 10 µM"

Which Ki is listed for CS(=O)(=O)NCCOc1ccc2c(c1)C(Cc1ccc(Cl)c(Cl)c1)C(N)CC2 (stereo not shown) [Example 15, hydrochloride] ?
≤ 1 µM

Try CCn1cc(S(=O)(=O)NCCOc2ccc3c(c2)C(Cc2cccc(Cl)c2)C(N)CC3)cn1 (stereo not shown) [Example 66, hydrochloride] next.
≤ 0.1 µM

Try CCCS(=O)(=O)NCCOc1ccc2c(c1)C(Cc1ccc(Cl)c(Cl)c1)C(N)CC2 (stereo not shown) [Example 8, hydrochloride] next.
≤ 0.1 µM

Try Cn1cnc(S(=O)(=O)NCCOc2ccc3c(c2)C(Cc2ccc(Cl)c(Cl)c2)C(N)CC3)c1 (stereo not shown) [Example 3, hydrochloride] next.
≤ 0.01 µM

----------
Biological target: human GlyT1c (Homo sapiens (Human))
Assay: [3H]-Glycine uptake into recombinant CHO cells expressing human GlyT1
Assay type: cell-based
Conditions: hGlyT1c_5_CHO cells, 200 nM [3H]-glycine
pIC50: −log10 of the molar value. Where a name gives a salt, the structure may show the parent alone.
Examples of compounds with documented pIC50 follow.

Some entries whose results are on file:
>>> value_observed("Cn1cc(S(=O)(=O)NCCOc2ccc3c(c2)C(Cc2ccc(Cl)cc2Cl)C(N)CC3)cn1 (stereo not shown) [Example 71, hydrochloride]")
"≥ 7.00"
>>> value_observed("CCOC(=O)NC1CCc2ccc(OCCNC(=O)OC(C)(C)C)cc2C1Cc1ccc(Cl)c(Cl)c1 (stereo not shown)")
"≥ 3.00"
>>> value_observed("Cn1cnc(S(=O)(=O)NCCOc2ccc3c(c2)C(Cc2cccc(Cl)c2)C(N)CC3)c1 (stereo not shown) [Example 48, hydrochloride]")
"≥ 8.00"
>>> value_observed("CCCS(=O)(=O)N(C)CCOc1ccc2c(c1)C(Cc1ccc(Cl)cc1)C(NC(=O)OCC)CC2 (stereo not shown)")
"≥ 3.00"
>>> value_observed("CCOC(=O)NC1CCc2ccc(OCCNS(=O)(=O)c3sc(C)nc3C)cc2C1Cc1cccc(Cl)c1 (stereo not shown)")
"≥ 4.00"

Which pIC50 is listed for CCOC(=O)NC1CCc2ccc(OCCNS(=O)(=O)c3cnn(C)c3)cc2C1Cc1ccc(Cl)cc1Cl (stereo not shown) ?
≥ 3.00

Try NC1CCc2ccc(OCCN3CCCS3(=O)=O)cc2C1Cc1cccc(Cl)c1 (stereo not shown) [Example 33, hydrochloride] next.
≥ 6.00

FYI, the data here is from patent US9067871B2.
